species: Rattus norvegicus; assay: Compound was tested for the inhibition of [3H]D-aspartate radioligand uptake into Synaptosomes in synaptic plasma membrane prepared from rat forebrain; very weak inhibition; type: functional, Brain/Plasma
pKi: −log10 of the molar value.
MEASURE NAME: pKi

Item O=C(O)C[C@H]1CCN[C@@H]1C(=O)O [TRANS-CPPA] has what recorded pKi?
< 3.60

###

target: Glutamate NMDA receptor; assay: Compound was tested for the inhibition of [3H]L-Glutamate radioligand binding to NMDA receptor in synaptic plasma membrane prepared from rat forebrain; type: cell membranes, Brain/Plasma
MEASURE NAME: pKi
Quick note: pKi values are minus log10 of concentrations in mol/L.

Item O=C(O)C[C@H]1CCN[C@@H]1C(=O)O [TRANS-CPPA] has what recorded pKi?
6.30

###

biological target: Glutamate NMDA receptor; test: Compound was tested for the inhibition of [3H]L-Glutamate radioligand binding to NMDA receptor in synaptic plasma membrane prepared from rat forebrain; very weak inhibition; assay type: cell membranes, Brain/Plasma
pKi: −log10 of the molar value.
MEASURE NAME: pKi

Item CC(C)[C@H]1CN[C@H](C(=O)O)[C@H]1CC(=O)O [DIHYDROKAINATE] has what recorded pKi?
< 3.52

###

target: Glutamate receptor ionotropic, AMPA (Rattus norvegicus, UniProt P19490+P19491+P19492+P19493); experiment: Compound was tested for the inhibition of [3H]AMPA radioligand binding to Ionotropic glutamate receptor AMPA in synaptic plasma membrane prepared from rat forebrain; type: cell membranes, Brain/Plasma
MEASURE NAME: pKi
Quick note: pKi values are minus log10 of concentrations in mol/L.

Item O=C(O)C[C@H]1CCN[C@@H]1C(=O)O [TRANS-CPPA] has what recorded pKi?
3.97

###

target: Glutamate receptor ionotropic, AMPA (Rattus norvegicus, UniProt P19490+P19491+P19492+P19493); assay: Compound was tested for the inhibition of [3H]AMPA radioligand binding to Ionotropic glutamate receptor AMPA in synaptic plasma membrane prepared from rat forebrain; very weak inhibition; assay type: cell membranes, Brain/Plasma
MEASURE NAME: Ki

Item CC(C)[C@H]1CN[C@H](C(=O)O)[C@H]1CC(=O)O [DIHYDROKAINATE] has what recorded Ki?
> 500 µM

###

target: Glutamate receptor ionotropic, kainate; experiment: Compound was tested for the inhibition of [3H]kainate radioligand binding to Ionotropic glutamate receptor kainate in synaptic plasma membrane prepared from rat forebrain
MEASURE NAME: pKi
Quick note: pKi values are minus log10 of concentrations in mol/L.

CC(C)[C@H]1CN[C@H](C(=O)O)[C@H]1CC(=O)O [DIHYDROKAINATE]	4.80

Then there is this molecule:
Item O=C(O)C[C@H]1CCN[C@@H]1C(=O)O [TRANS-CPPA] has what recorded pKi?
5.80
